Origin of values: ChEMBL document CHEMBL4007467

- subject-of-test: CYP2C9 (Homo sapiens, UniProt P11712)
- Sequence (P11712 whole entry): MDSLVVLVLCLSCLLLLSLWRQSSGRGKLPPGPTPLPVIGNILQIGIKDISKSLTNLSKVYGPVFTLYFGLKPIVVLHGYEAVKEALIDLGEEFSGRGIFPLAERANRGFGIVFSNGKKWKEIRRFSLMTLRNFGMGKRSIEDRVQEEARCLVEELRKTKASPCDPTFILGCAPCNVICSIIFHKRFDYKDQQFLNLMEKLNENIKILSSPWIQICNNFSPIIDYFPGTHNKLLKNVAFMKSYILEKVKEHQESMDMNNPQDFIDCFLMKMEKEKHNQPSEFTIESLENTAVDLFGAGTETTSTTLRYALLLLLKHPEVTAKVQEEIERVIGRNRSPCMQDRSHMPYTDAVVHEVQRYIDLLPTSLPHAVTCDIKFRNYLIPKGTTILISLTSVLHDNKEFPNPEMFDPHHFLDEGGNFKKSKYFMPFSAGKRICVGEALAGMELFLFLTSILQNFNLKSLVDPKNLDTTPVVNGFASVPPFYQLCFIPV
- procedure-summary: Inhibition of CYP2C9 in human liver microsomes assessed as enzyme-mediated metabolite formation at 1 uM using diclofenac as substrate preincubated for 20 mins followed by substrate addition measured after 30 mins in presence of NADPH by LC-MS/MS analysis relative to control
- Format: ADME
- Set-up: scale not given: the % may be the effect or the level left
- condition-label: probe diclofenac, read-out: Activity
observation-type: activity at 0.5 h, 1 µM (%)
Just the number please, in %, no unit attached.

Query :: Fill in the recorded activity at 0.5 h, 1 µM for this compound, with CYP2C9 (Homo sapiens, UniProt P11712) as test system: CCCCCCCC(=O)CCc1ccc(O)c(OC)c1
Result :: 81.1

---

- subject-of-test: CYP3A4 (Homo sapiens)
- Sequence (P08684 whole entry): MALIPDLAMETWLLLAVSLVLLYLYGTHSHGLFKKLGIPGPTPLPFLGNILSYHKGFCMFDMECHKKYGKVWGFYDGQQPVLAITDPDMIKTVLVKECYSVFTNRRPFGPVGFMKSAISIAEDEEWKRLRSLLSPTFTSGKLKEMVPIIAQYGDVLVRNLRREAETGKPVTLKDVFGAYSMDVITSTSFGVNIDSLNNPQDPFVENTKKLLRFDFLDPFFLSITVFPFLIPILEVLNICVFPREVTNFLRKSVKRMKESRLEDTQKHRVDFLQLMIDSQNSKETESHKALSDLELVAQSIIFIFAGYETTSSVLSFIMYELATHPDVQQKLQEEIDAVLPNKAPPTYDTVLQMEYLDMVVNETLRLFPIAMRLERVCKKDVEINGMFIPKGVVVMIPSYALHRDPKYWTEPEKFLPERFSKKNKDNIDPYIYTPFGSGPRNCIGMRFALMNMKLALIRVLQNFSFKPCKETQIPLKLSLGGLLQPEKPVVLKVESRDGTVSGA
- procedure-summary: Inhibition of CYP3A4 in human liver microsomes assessed as enzyme-mediated metabolite formation at 30 uM using testosterone as substrate preincubated for 20 mins followed by substrate addition measured after 30 mins in presence of NADPH by LC-MS/MS analysis relative to control
- Type: ADME
- Design: scale not given: the % may be the effect or the level left
- condition-label: probe testosterone, read-out: Activity
observation-type: activity at 0.5 h, 30 µM
Give your result as the value with the unit written after it.

Query :: # lookup: activity at 0.5 h, 30 µM of CCCCCCCC(=O)CCc1ccc(O)c(OC)c1
Result :: 62.3%

---

- subject-of-test: Cytochrome P450 2C19 (Homo sapiens, UniProt P33261)
- Sequence (P33261 whole entry): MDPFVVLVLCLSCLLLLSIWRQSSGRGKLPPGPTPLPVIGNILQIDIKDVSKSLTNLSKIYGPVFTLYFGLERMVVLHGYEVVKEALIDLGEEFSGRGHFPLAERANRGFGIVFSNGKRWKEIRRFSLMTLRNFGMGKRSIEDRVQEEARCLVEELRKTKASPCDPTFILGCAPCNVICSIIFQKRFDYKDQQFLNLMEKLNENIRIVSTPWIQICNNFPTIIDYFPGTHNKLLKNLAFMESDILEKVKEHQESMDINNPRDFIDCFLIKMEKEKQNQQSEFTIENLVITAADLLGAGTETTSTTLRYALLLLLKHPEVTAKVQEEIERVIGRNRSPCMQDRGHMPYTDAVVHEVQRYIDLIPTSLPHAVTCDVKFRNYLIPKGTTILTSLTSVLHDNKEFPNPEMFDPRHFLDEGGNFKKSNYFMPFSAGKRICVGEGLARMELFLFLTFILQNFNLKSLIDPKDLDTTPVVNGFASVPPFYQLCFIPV
- procedure-summary: Inhibition of CYP2C19 in human liver microsomes assessed as enzyme-mediated metabolite formation using (S)-mephenytoin as substrate incubated for 5 mins followed by NADPH addition measured after 30 mins by LC-MS/MS analysis
- Format: ADME
observation-type: pIC50
Answer as the number alone; pIC50 is minus log10 of concentration in mol/L.

Query :: # lookup: pIC50 of CCCCCCCC(=O)CCc1ccc(O)c(OC)c1
Result :: 4.75

---

- subject-of-test: Cytochrome P450 2A6 (Homo sapiens)
- Sequence (P11509 whole entry): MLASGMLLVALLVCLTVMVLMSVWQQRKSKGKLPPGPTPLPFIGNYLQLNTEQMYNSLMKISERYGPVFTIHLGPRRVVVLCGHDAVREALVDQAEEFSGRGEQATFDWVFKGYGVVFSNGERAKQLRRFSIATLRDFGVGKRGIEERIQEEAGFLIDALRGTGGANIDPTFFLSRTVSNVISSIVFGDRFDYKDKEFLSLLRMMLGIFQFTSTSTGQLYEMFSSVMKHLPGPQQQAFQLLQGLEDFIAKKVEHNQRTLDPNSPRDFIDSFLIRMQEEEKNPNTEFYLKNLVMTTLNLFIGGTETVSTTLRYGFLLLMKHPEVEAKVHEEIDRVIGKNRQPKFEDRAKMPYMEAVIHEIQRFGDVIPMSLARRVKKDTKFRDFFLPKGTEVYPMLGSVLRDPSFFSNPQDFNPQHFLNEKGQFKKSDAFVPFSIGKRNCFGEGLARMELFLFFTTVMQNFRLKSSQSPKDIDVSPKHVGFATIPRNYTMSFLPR
- procedure-summary: Inhibition of CYP2A6 in human liver microsomes assessed as enzyme-mediated metabolite formation using coumarin as substrate incubated for 5 mins followed by NADPH addition measured after 30 mins by LC-MS/MS analysis
- Type: ADME
pIC50: −log10 of the molar value.
observation-type: pIC50

Query :: # lookup: pIC50 of CCCCCCCC(=O)CCc1ccc(O)c(OC)c1
Result :: < 4.52
